The reported numbers originate from paper PMC9038204.

biological target: T1, human SNX27 K496D (human, UniProt Q96L92 1-541, K496D); experiment: ITC; 600 μM SNX1 75-92 peptide titrated into 20 μM hSNX27 wild-type or single-site mutant; 25°C; 50 mM HEPES pH 7.5, 200 mM NaCl, 5% glycerol, 1 mM β-ME; single-site model; settings: both partners purified
T1 construct: human SNX27 single-site mutant; printed as R496D in the text and as K496D in the legend and the methods; also called hSNX27 K496D; SNX27(R496D); source: E. coli BL21 (DE3), purified (TALON or Ni-NTA, SEC)
Measure Name: pKd
In plain terms, pKd is the concentration in mol/L turned into minus its base-10 logarithm.

State the recorded pKd for this entry: NGIHEEQDQEPQDLFADA (human SNX1 residues 75 to 92; also called second aDLF motif of human SNX1; source: synthetic peptide (Genscript)) [SNX1_(75-92) peptide]
4.25
